Hello, the source for this data is patent US20250320312A1, in case you need it.

- test_target: T1, Peptide 8: Biotin-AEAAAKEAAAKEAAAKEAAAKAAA-Tyr-acid (N-terminal biotin; C-terminal acid)
- T1 construct: Control peptide without PC
- T1 peptide: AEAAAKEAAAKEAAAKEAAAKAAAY
- test_summary: scFv ELISA
- Experimental: For ELISA analysis of scFv binding, 96-well polystyrene plates were coated with Peptide 1, 4, 5, 8 or 100 μL BSA (10 μg/mL) in PBS at 4° C. overnight. […] All plates were washed three times with PBS-Tween before 40 μL aliquots of PPE were added to assay plates along with 50 μL 10% BSA, and plates were incubated for 1 hour at room temperature. […] The amount of scFv bound to each well was quantitated from absorbance measurement at 450 nm (OD450).
measure: OD450 (OD450)
// return numeric value only (unit: OD450, not printed)

## Task Recorded OD450 of PcOxP_DB04_E05 (scFv, V domains shown, scFv in periplasmic extract) VH: EVQLLESGGGLVQPGGSLRLSCAASGNTFSDFYMEWVRQAPGKGLEWVAASRNKANYYTTEYADSVKGRFTISRDNSKNTLYLQMNSLRAEDTAVYYCARDYYGSSYWYFDVWGQGTLVTVSS VL: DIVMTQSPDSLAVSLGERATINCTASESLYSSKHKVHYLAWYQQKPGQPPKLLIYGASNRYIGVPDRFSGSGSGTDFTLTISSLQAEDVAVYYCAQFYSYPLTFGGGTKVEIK , please.
## Result 0.05

## Task Recorded OD450 of PcOxP_DB03_B12 (scFv, V domains shown, scFv in periplasmic extract) VH: EVQLLESGGGLVQPGGSLRLSCAASGFQFSDFYMEWVRQAPGKGLEWVAASRWKANDYTTEYADSVKGRFTISRDNSKNTLYLQMNSLRAEDTAVYYCARDYYGSSYWYFDVWGQGTLVTVSS VL: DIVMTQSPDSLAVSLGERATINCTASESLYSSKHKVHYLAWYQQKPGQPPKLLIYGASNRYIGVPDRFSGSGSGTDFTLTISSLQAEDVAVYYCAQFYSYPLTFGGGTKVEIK , please.
## Result 0.05

## Task Recorded OD450 of PcOxP_DB04_G09 (scFv, V domains shown, scFv in periplasmic extract) VH: EVQLLESGGGLVQPGGSLRLSCAASGNTFSDFYMEWVRQAPGKGLEWVAASRNKWNDYTTEYADSVKGRFTISRDNSKNTLYLQMNSLRAEDTAVYYCARDYYGSSYWYFDVWGQGTLVTVSS VL: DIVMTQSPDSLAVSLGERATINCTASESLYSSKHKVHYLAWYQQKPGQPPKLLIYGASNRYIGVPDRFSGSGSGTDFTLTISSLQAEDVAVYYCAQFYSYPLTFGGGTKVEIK , please.
## Result 0.06

## Task Recorded OD450 of PcOxP_DB04_D12 (scFv, V domains shown, scFv in periplasmic extract) VH: EVQLLESGGGLVQPGGSLRLSCAASGFTFSDQYMEWVRQAPGKGLEWVAASRNKANDWTTEYADSVKGRFTISRDNSKNTLYLQMNSLRAEDTAVYYCARDYYGSSYWYFDVWGQGTLVTVSS VL: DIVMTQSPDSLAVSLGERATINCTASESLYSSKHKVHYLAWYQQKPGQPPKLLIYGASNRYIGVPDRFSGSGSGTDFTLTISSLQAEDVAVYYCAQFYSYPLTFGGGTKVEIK , please.
## Result 0.05
